# Test name: WST-1 cytotoxicity assay, HL-60
# Type: cell-based
# Applied conditions: human, HL-60 cells (acute myeloid leukemia); WST-1, 48 h incubation; read-out: EC50 class, cytotoxic effect, CL-1 (HL-60)
Exercise: state measured EC50 at 48 h for each of the molecules provided.

I'd like to know its EC50 at 48 h. The molecule in question is "Oc1c(F)cccc1NCc1ccccc1Sc1ccc(Cl)cc1" < 10 µM

# lookup: EC50 at 48 h of "Oc1c(NCc2ccccc2Sc2ccccc2Cl)ccc(F)c1F" 10 to 50 µM

Item "Oc1c(Cl)cc(Cl)cc1NCc1cccc(OCc2ccccc2)c1" has what recorded EC50 at 48 h? 10 to 50 µM

What does the record list as EC50 at 48 h for "CC(C)(C)NC(=S)Nc1cc(-c2nc3ccccc3s2)cc(Cl)c1O" ? 10 to 50 µM

Give its EC50 at 48 h value. Item: "O=C(Nc1cc(Cl)cc(Cl)c1O)c1ccc(-c2ccccc2)cc1" < 10 µM

Look up EC50 at 48 h for this molecule: "O=C(Nc1cc(Cl)nc(Cl)c1)Nc1cc(Cl)c(O)c(NCc2ccccc2Sc2ccc(Cl)cc2)c1" < 10 µM

Quick one: EC50 at 48 h of "Oc1ccccc1NCc1ccccc1Sc1ccc(Cl)cc1" ? 10 to 50 µM

What value of measured EC50 at 48 h is listed for "Cc1c(Cl)cc(NC(=S)NCc2ccccc2)c(O)c1Cl" ? 10 to 50 µM

Quick check: EC50 at 48 h of "COc1ccc(Oc2cccc(CNc3cc(Cl)cc(Cl)c3O)c2)cc1" ? 10 to 50 µM
